Measured values drawn from patent US20170281720A1 for this set.

Molecular target: T1, MDMX (In-house, 40 kD) (UniProt O15151 1-120, limits assumed)
T1 construct: Construct not described beyond 'In-house, 40 kD'; also called MDM4
T1 sequence (looked up): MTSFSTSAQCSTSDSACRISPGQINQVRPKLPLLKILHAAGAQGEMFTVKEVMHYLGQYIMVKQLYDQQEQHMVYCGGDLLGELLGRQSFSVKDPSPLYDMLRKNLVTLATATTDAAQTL
Test: FP competition on MDMX vs FAM-labeled linear peptide; graded IC50, + = >1000 nM
Bridges are numbered along the chain shown (N, C = ends). [ ]: non-standard residue; d: D form. The star is where a group is joined. Palmitoyl = CCCCCCCCCCCCCCCC(=O)*; R8 = C=CCCCCCC[C@@](C)(N)C(=O)O; Cba = N[C@@H](CC1CCC1)C(=O)O; S5 = C=CCCC[C@](C)(N)C(=O)O
Observable: IC50

>  <Binder>
Palmitoyl-ETF[R8]EYWAQ[Cba][S5]SAA-NH2 (staple 4-11) [SP250, Pam-ETF$r8EYWAQCba$SAA-NH2]

>  <IC50>
> 1000 nM

$$$$

Now take the following binder into account.
Measured IC50, Ac-LTA[R8]EYWAQ[Cba][S5]SAA-NH2 (staple 4-11) [SP252, Ac-LTA$r8EYWAQCba$SAA-NH2] : > 1000 nM
